target: T1, human ROR2 expressed on the cell surface (human, UniProt Q01974 34-943); assay: flow cytometry, H345 cells (SCLC); parameters: unit not given here
T1 construct: Endogenous ROR2 of human tumour cell lines; also called cell surface ROR2; ROR2 on tumour cell lines
T1 sequence (Q01974 34-943 limits assumed): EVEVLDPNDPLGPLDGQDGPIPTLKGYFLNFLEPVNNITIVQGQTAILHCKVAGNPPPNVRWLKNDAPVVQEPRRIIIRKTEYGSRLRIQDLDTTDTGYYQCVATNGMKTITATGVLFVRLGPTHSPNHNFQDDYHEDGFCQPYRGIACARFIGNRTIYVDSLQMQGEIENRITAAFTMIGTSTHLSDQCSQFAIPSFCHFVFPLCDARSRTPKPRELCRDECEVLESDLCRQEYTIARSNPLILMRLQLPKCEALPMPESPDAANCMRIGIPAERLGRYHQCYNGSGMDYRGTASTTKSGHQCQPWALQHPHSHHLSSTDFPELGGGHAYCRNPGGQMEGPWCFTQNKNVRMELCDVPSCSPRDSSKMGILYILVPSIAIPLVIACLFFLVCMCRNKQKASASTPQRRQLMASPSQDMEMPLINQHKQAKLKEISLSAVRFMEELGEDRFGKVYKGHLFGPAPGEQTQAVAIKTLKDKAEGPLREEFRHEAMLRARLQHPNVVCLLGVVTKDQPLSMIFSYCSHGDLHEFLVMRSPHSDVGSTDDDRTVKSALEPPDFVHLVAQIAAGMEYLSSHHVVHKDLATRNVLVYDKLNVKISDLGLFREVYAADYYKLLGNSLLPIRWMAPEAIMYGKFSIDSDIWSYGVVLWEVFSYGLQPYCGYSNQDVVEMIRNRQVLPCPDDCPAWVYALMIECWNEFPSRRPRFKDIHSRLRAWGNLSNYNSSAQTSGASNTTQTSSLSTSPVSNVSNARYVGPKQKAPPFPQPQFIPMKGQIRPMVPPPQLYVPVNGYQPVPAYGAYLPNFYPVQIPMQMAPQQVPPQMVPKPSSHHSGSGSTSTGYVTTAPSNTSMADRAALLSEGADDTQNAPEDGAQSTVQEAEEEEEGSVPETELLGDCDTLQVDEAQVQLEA
readoutName: binding intensity

[
  {
    "binder": "ROR2-90 full length human IgG1 antibody (antibody, V domains shown, also called clone #90; antibody #90) VH: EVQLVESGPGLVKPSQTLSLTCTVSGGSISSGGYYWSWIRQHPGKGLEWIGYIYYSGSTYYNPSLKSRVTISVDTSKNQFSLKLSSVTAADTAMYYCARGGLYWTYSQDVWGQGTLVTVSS VL: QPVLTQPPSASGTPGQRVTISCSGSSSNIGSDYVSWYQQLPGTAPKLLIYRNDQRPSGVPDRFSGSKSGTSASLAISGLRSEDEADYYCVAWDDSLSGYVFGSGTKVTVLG",
    "readoutName": "binding intensity",
    "measuredNumber": 48
  }
]
